Would you kindly list MIC for each of these molecules?
# Test system: strain C, fluoroquinolone-resistant clinical isolate of Streptococcus pneumoniae
# test-method-notes: In vitro antibacterial activity (MIC), microdilution broth method (NCCLS), strain C
# Assay type: cell-based
# conditions: read-out: In vitro Antibacterial Activity MIC, C
One number for each entry, in µg/mL.

O=C(O)c1cn(C2CC2)c2nc(N3CC4ON=C(c5cccnc5)C4C3)c(F)cc2c1=O (stereo not drawn)    2
C[C@H]1COc2c(N3CC4ON=C(c5cccnc5)C4C3)c(F)cc3c(=O)c(C(=O)O)cn1c23 (stereo partly drawn)    16
COc1c(N2C[C@@H]3ON=C(c4ccccn4)[C@@H]3C2)c(F)cc2c(=O)c(C(=O)O)cn(C3CC3)c12 (relative stereo)    16
O=C(O)c1cn(C2CC2)c2nc(N3CC4ON=C(c5ccccn5)C4C3)c(F)cc2c1=O (stereo not drawn)    2
O=C(O)c1cn(-c2ccc(F)cc2F)c2nc(N3CC4ON=C(c5ccc(Cl)cc5)C4C3)c(F)cc2c1=O (stereo not drawn)    2

Return reported MIC values for all items listed beneath this line.
1. COc1c(N2C[C@@H]3ON=C(c4ccccn4)[C@@H]3C2)ccc2c(=O)c(C(=O)O)cn(C3CC3)c12 (relative stereo)
2. O=C(O)c1cn(C2CC2)c2nc(N3CC4ON=C(CO)C4C3)c(F)cc2c1=O (stereo not drawn)

Output:
1. 8
2. 16

---

Would you kindly list MIC for each of these molecules?
# System: strain C, fluoroquinolone-resistant clinical isolate of Streptococcus pneumoniae
# test-method-notes: In vitro antibacterial activity (MIC), microdilution broth method (NCCLS), strain C
# Type: cell-based
# conditions: read-out: In vitro Antibacterial Activity MIC, C

The following molecules have reported results that may help.
CCOC(=O)C1=NOC2CN(c3c(F)cc4c(=O)c(C(=O)O)cn(C5CC5)c4c3OC)CC12 (stereo not drawn) [ID No. 124]    > 16 µg/mL
COc1ccc(C2=NOC3CN(c4cc5c(cc4F)c(=O)c(C(=O)O)cn5C4CC4)CC23)cn1 (stereo not drawn) [ID No. 134]    > 16 µg/mL

Task: Recorded MIC for COc1c(N2C[C@@H]3ON=C(c4ccc(C(F)(F)F)nc4)[C@@H]3C2)c(F)cc2c(=O)c(C(=O)O)cn(C3CC3)c12 (relative stereo) [ID No. 121] , please?
Output: > 16 µg/mL
